Record form. Attribute: fraction unbound. Fill in for each entry.
# test name: Percentage of binding to human plasma proteins (BRAINstorm)
# Type: in vitro ADME
# test context: human plasma proteins, read-out: hPPB% (percent human plasma protein binding) (converted)
# From the text: To evaluate the potential drug-like properties of the electronic homologue ORI-TRN-002, we measured the compound’s properties in the Origenis BRAINstorm™ platform. This platform uses affinity chromatography under standard conditions and standard calibrants to measure compound properties with high accuracy and reproducibility. […] It supersedes the solubility and free fraction limitations of the Aeromics/Simcere drug AER-270 [21] (Figure 2). […]
Note: the reply should be a number with no unit written.

Inquiry: Tell me measured fraction unbound for O=C(Nc1nncs1)c1cccnc1 [TGN-020, 2-(nicotinamide)-1,3,4-thiadiazole] please.
Reply text: 0.318

Inquiry: Tell me measured fraction unbound for O=c1[nH]c(-c2cccnc2)nc2[nH]ncc12 please.
Reply text: 0.608

---

# test name: Percentage of binding to human plasma proteins (BRAINstorm)
# Assay type: in vitro ADME
# test context: plasma
property name: fraction unbound

Inquiry: Tell me measured fraction unbound for O=C(Nc1cc(C(F)(F)F)cc(C(F)(F)F)c1)c1cc(Cl)ccc1O please.
Reply text: 0.005

---

# test name: Octanol-water distribution coefficient at pH 7.4 (Origenis BRAINstorm platform, affinity chromatography)
# Type: physicochemical
# test context: octanol/water
property name: chromatographic logD
Note: the reply should be a number with no unit written.

Inquiry: Tell me measured chromatographic logD for O=c1[nH]c(-c2cccnc2)nc2[nH]ncc12 please.
Reply text: -0.07

Inquiry: Tell me measured chromatographic logD for O=C(Nc1nncs1)c1cccnc1 [TGN-020, 2-(nicotinamide)-1,3,4-thiadiazole] please.
Reply text: 0.04
